Target: DRB1*0101 (DR1) (Homo sapiens, UniProt P01903+P01911, A100R/D57E/F55L/F60I/F76Y/I96L/L162R/M171V/P40L/Q125E/R42F/V115G/Y59C)
Construct: used as sources of human HLA class II molecules; endogenous in cells; host or cells: LG2 (EBV-transformed homozygous B cell line)
Test: Class II peptide-binding assay, DR1;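 further: competition assay: unlabeled test peptides inhibit binding of a radiolabeled probe peptide to purified DR, with half-maximal inhibition taken as an approximate dissociation constant Kd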
Settings: read-out: DR1 nM; Table VIII, In IC50 Format
pIC50: −log10 of the molar value. Square brackets hold non-standard residues; d marks the D form. Peptide text beside a SMILES is read from it.
Listed here are molecules together with their documented pIC50.

| molecule | pIC50 |
| --- | --- |
| CC(C)C[C@H](NC(=O)[C@@H](NC(=O)[C@H](C)NC(=O)[C@H](C)NC(=O)[C@H](CCCCN)NC(=O)[C@@H](NC(=O)[C@H](Cc1ccccc1)NC(=O)[C@H](CCCCN)NC(=O)[C@@H](C)N)C(C)C)[C@@H](C)O)C(=O)N[C@@H](CCCCN)C(=O)N[C@@H](C)C(=O)N[C@@H](C)C(=O)N[C@H](C)C(N)=O [Peptide 909.02] (H-[dA]KFVKAATLKAA[dA]-NH2) | 8.60 |
| CC(C)C[C@H](NC(=O)[C@@H](NC(=O)[C@@H](NC(=O)[C@H](CCC(N)=O)NC(=O)[C@H](CO)NC(=O)[C@H](CCC(N)=O)NC(=O)[C@H](Cc1ccccc1)NC(=O)[C@H](CCCNC(=N)N)NC(=O)[C@H](C)NC(=O)[C@H](N)Cc1ccc(O)cc1)[C@@H](C)O)[C@@H](C)O)C(=O)N[C@@H](CCCCN)C(=O)N[C@@H](C)C(=O)N[C@@H](CCCCN)C(=O)N[C@@H](C(N)=O)[C@H](C)O [Peptide 858.06] (H-[dY]ARFQSQTTLKAK[dT]-NH2) | 8.35 |
| CC(C)C[C@H](NC(=O)[C@@H](NC(=O)[C@H](C)NC(=O)[C@H](C)NC(=O)[C@H](CCCCN)NC(=O)[C@H](C)NC(=O)[C@H](Cc1ccccc1)NC(=O)[C@H](CCCCN)NC(=O)[C@@H](C)N)[C@@H](C)O)C(=O)N[C@@H](CCCCN)C(=O)N[C@@H](C)C(=O)N[C@@H](C)C(=O)N[C@H](C)C(N)=O [Peptide 871.01] (H-[dA]KFAKAATLKAA[dA]-NH2) | 8.38 |

====

Biological target: DRB1*1302 (DR6w19) (Homo sapiens, UniProt P01903+P01911, A100E/A169T/K41T/L162R/M171V/P40S/Q125H/Q178H/Q39Y/Q99D/R42S/S66N/T262R/V115G/W38E/Y61H)
Sequence (P01903 26-254, other chains not shown): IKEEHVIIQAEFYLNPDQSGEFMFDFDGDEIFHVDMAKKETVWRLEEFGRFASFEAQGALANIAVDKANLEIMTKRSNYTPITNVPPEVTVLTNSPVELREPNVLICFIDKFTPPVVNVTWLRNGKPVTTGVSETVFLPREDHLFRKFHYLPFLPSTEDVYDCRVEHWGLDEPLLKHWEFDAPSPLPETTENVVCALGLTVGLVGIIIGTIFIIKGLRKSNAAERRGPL
Type: binding
Details: read-out: In IC50 Format DR6w19 nM; Table VIII; values in parentheses read as lower bounds
Ends that are not written are not given here.

| biopolymerSequence | IC50 |
| --- | --- |
| ARLLDIDETEYHADG [Peptide 39.0366] | > 35 µM |

====

Target: DRB1*1101 (DR5w11) (Homo sapiens, UniProt P01903+P01911, A100R/A169T/A87E/I96F/K41T/L162R/M171V/P40S/Q125H/Q178H/Q39Y/Q99D/R42S/S66Y/T262R/V115G/W38E)
Construct: used as sources of human HLA class II molecules; endogenous in cells; host or cells: SWEIG (EBV-transformed homozygous B cell line)
Sequence (P01903 26-254, other chains not shown): as above
Assay: Class II peptide-binding assay, DR5w11;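 further: competition by unlabeled test peptide against iodinated probe peptide binding to affinity-purified HLA-DR, class II amount titrated beforehand, half-maximal inhibitory concentration read as approximate Kd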
Conditions: read-out: DR5w11 nM; Table VIII, In IC50 Format
Square brackets hold non-standard residues; d marks the D form. Peptide text beside a SMILES is read from it.
Could you please mark y for values of IC50 below 20 nM and n for values at or above it?

| compound | discreteLabel |
| --- | --- |
| C[C@H](NC(=O)[C@H](N)Cc1ccc(O)cc1)C(=O)N[C@@H](C)C(=O)N[C@@H](Cc1ccccc1)C(=O)N[C@@H](C)C(=O)N[C@@H](C)C(=O)N[C@@H](C)C(=O)N[C@@H](C)C(=O)N1CCC[C@H]1C(=O)N[C@@H](CCCCN)C(=O)N[C@@H](C)C(=O)N[C@@H](C)C(=O)N[C@@H](C)C(=O)N[C@H](C)C(N)=O [Peptide 828.06] (H-[dY]AAFAAAAPKAAA[dA]-NH2) | n |
| CC(C)C[C@H](NC(=O)[C@@H](NC(=O)[C@@H](NC(=O)[C@H](CCC(N)=O)NC(=O)[C@H](CO)NC(=O)[C@H](CCC(N)=O)NC(=O)[C@H](Cc1ccccc1)NC(=O)[C@H](CCCNC(=N)N)NC(=O)[C@H](C)NC(=O)[C@H](N)Cc1ccc(O)cc1)[C@@H](C)O)[C@@H](C)O)C(=O)N[C@@H](CCCCN)C(=O)N[C@@H](C)C(=O)N[C@@H](CCCCN)C(=O)N[C@@H](C(N)=O)[C@H](C)O [Peptide 858.06] (H-[dY]ARFQSQTTLKAK[dT]-NH2) | y |
| C[C@H](NC(=O)[C@H](C)NC(=O)[C@H](Cc1ccccc1)NC(=O)[C@H](C)NC(=O)[C@@H](C)N)C(=O)N[C@@H](C)C(=O)N[C@@H](C)C(=O)N1CCC[C@H]1C(=O)N[C@@H](CCCCN)C(=O)N[C@@H](C)C(=O)N[C@@H](C)C(=O)N[C@@H](C)C(=O)N[C@H](C)C(N)=O [Peptide 828.05] (H-[dA]AFAAAAPKAAA[dA]-NH2) | n |
| CC(C)C[C@H](NC(=O)[C@H](CCCCN)NC(=O)[C@H](CC(C)C)NC(=O)[C@@H](NC(=O)[C@H](CC(N)=O)NC(=O)[C@H](CCC(N)=O)NC(=O)[C@H](CCCCN)NC(=O)[C@@H](NC(=O)[C@H](Cc1ccc(O)cc1)NC(=O)[C@H](CCCCN)NC(=O)[C@@H]1CCCN1C(=O)[C@@H](N)CS)C(C)C)[C@@H](C)O)C(=O)N[C@@H](C)C(=O)N[C@H](C(=O)NCC(=O)O)[C@@H](C)O [Peptide 852.01] | n |
| CC(C)C[C@H](NC(=O)[C@@H](NC(=O)[C@H](C)NC(=O)[C@H](C)NC(=O)[C@H](CCCCN)NC(=O)[C@@H](NC(=O)[C@H](Cc1ccccc1)NC(=O)[C@H](CCCCN)NC(=O)[C@@H](C)N)C(C)C)[C@@H](C)O)C(=O)N[C@@H](CCCCN)C(=O)N[C@@H](C)C(=O)N[C@@H](C)C(=O)N[C@H](C)C(N)=O [Peptide 909.02] (H-[dA]KFVKAATLKAA[dA]-NH2) | y |
| CC(C)C[C@H](NC(=O)[C@@H](NC(=O)[C@@H](NC(=O)[C@H](CCC(N)=O)NC(=O)[C@H](CO)NC(=O)[C@H](CCC(N)=O)NC(=O)[C@H](Cc1ccccc1)NC(=O)[C@H](CCCCN)NC(=O)[C@H](C)NC(=O)[C@H](N)Cc1ccc(O)cc1)[C@@H](C)O)[C@@H](C)O)C(=O)N[C@@H](CCCCN)C(=O)N[C@@H](C)C(=O)N[C@@H](CCCCN)C(=O)N[C@@H](C(N)=O)[C@H](C)O [Peptide 858.02] (H-[dY]AKFQSQTTLKAK[dT]-NH2) | y |
| CC(C)C[C@H](NC(=O)[C@@H](NC(=O)[C@H](C)NC(=O)[C@H](C)NC(=O)[C@H](CCCCN)NC(=O)[C@H](C)NC(=O)[C@H](Cc1ccccc1)NC(=O)[C@H](CCCCN)NC(=O)[C@@H](C)N)[C@@H](C)O)C(=O)N[C@@H](CCCCN)C(=O)N[C@@H](C)C(=O)N[C@@H](C)C(=O)N[C@H](C)C(N)=O [Peptide 871.01] (H-[dA]KFAKAATLKAA[dA]-NH2) | y |
| CC(C)C[C@H](NC(=O)[C@@H](NC(=O)[C@H](C)NC(=O)[C@H](C)NC(=O)[C@H](C)NC(=O)[C@H](CCCCN)NC(=O)[C@H](Cc1ccccc1)NC(=O)[C@H](C)NC(=O)[C@@H](C)N)[C@@H](C)O)C(=O)N[C@@H](CCCCN)C(=O)N[C@@H](C)C(=O)N[C@@H](C)C(=O)N[C@H](C)C(N)=O [Peptide 871.08] (H-[dA]AFKAAATLKAA[dA]-NH2) | y |
| C[C@H](NC(=O)[C@H](N)Cc1ccc(O)cc1)C(=O)N[C@@H](C)C(=O)N[C@@H](Cc1ccccc1)C(=O)N[C@@H](C)C(=O)N[C@@H](C)C(=O)N[C@@H](C)C(=O)N[C@@H](C)C(=O)N[C@H](C(=O)N[C@@H](CCCCN)C(=O)N[C@@H](C)C(=O)N[C@@H](C)C(=O)N[C@@H](C)C(=O)N[C@H](C)C(N)=O)[C@@H](C)O [Peptide 828.10] (H-[dY]AAFAAAATKAAA[dA]-NH2) | n |
